- assay: modulators of S6 phosphorylation in cells, primary screen, cell-based, A549, cytoblot, luminescence, serum-stimulated (AID 1158);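 further: serum-stimulated A549 lung adenocarcinoma cells; signal is phosphorylated S6 detected by cytoblot immunostaining with HRP secondary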
- measurement.context: A549 phospho-S6 cytoblot, 5 h, higher = more signal
Measured z-score values are reported for all entries that follow.

compound	z-score
O=C1O[C@H](c2ccccc2)[C@H](c2ccccc2)N2[C@H]1[C@@H](C(=O)Nc1nc3ccccc3s1)[C@]1(C(=O)Nc3ccc(C#CCCO)cc31)[C@H]2c1ccc(OCCO)cc1	-0.472
C=CCNC(=O)[C@@H]1[C@H]2C(=O)O[C@H](c3ccccc3)[C@H](c3ccccc3)N2[C@H](c2ccc(OCCO)cc2)[C@@]12C(=O)Nc1ccc(C#CCCO)cc12	-0.344
CCCCc1cn(C[C@H](Cc2ccccc2)NC(=O)N[C@H](CO)CCc2oc(C(C)=O)c(C(=O)OC)c2C(=O)OC)nn1	0.847
CC(C)(C)C(=O)N[C@@H](c1ccc(Cl)cc1)[C@]1(C)C[C@H]1C1CCCCC1	-0.191
C=C(COC)/C(=C/C[C@H](OC(=O)c1ccncc1)c1ccc(OCCO)cc1)c1cnc2ccccc2c1	0.123
C=CCOC(=O)[C@H]1[C@@H]2C(=O)O[C@@H](c3ccccc3)[C@@H](c3ccccc3)N2[C@@H](c2ccc(OCCOC(=O)[C@H]3C[C@H]4C(=O)N5CCC[C@H]5C(=O)N4[C@H]3c3ccc(O)cc3)cc2)[C@]12C(=O)Nc1ccc(I)cc12	0.555
CCCC[C@@H]1C[C@H]1[C@@H](NC(=O)c1ccco1)c1ccc(C(=O)OC)cc1	-0.0467
C[N+](C)(C)CCCC[C@@H]1NC(=O)[C@@H]2C[C@H](C(=O)NCCCCCN)[C@H](c3cccc(OCCO)c3)N2C1=O	-0.0726
O=C1c2ccccc2[C@@]2(Cc3ccccc3N(CC(F)(F)F)C2=O)[C@H](c2ccc(CO)cc2)N1Cc1ccccc1Cl	0.258
C=CC[C@]12N=C(c3ccc(OCCCO)cc3)O[C@H]1c1ccccc1N(Cc1ccccc1)C2=O	-0.329
COc1ccc(C(=O)Nc2ccc(CN3C(=O)[C@@]4(O[C@@H](CCO)[C@H]([Si](C)(C)c5ccc(OC)cc5)[C@H]4C)c4ccccc43)cc2)cc1	-0.483
COc1cc2c(cc1OC)CN(C(=O)[C@H]1[C@@H]3C(=O)O[C@@H](c4ccccc4)[C@@H](c4ccccc4)N3[C@@H](c3ccc(O)cc3)[C@]13C(=O)Nc1ccc(C#CC4=CCCCC4)cc13)CC2	-0.226
COCCOC(=O)N1C(=O)[C@@]2(c3ccccc31)[C@H](c1ccc(O)cc1)N1[C@H](c3ccccc3)[C@H](c3ccccc3)OC(=O)[C@H]1[C@@H]2C(=O)NC[C@H](O)c1ccccc1	0.104
CC(=O)n1cc(C(O)C2C=CC3C(=O)N(C)C(=O)C3N2Nc2ccccc2)c2ccccc21 (configuration not stated)	-0.994
CN(C)CCCCCCNC(=O)[C@@H]1C[C@@H]2C(=O)N[C@@H](CCCCN)C(=O)N2[C@@H]1c1cccc(OCCO)c1	1.51
C=CCNC(=O)[C@@H]1[C@H]2C(=O)O[C@H](c3ccccc3)[C@H](c3ccccc3)N2[C@H](c2ccccc2OCCO)[C@@]12C(=O)N(C(=O)OCCOC)c1ccc(C#CCNC(N)=O)cc12	0.425
COC(=O)[C@@]1(Cc2ccc(F)cc2)[C@H]2c3cc(C(=O)N(C)C)n(Cc4nc5ccccc5[nH]4)c3C[C@H]2CN1C(=O)c1ccccc1	-0.377
C=C(C)C1C(=C)CN([C@H](CO)c2ccccc2)C1=O (some centres not stated)	-0.272
COC(=O)[C@@]1(Cc2ccccc2)[C@H]2c3cc(C(=O)N4CCCC4)n(Cc4cccc5ccccc45)c3C[C@H]2CN1C(=O)c1ccccc1	-0.503
CCOC(=O)C[C@H]1[C@H](OC(=O)Cc2ccc3c(c2)OCO3)[C@@H](NC(=O)c2ccc3ccccc3c2)c2cc(OCCCO)ccc2N1C(=O)c1ccccc1	0.0043
COc1ccc(C(O)C2C=CC3C(=O)NC(=O)C3N2Nc2ccccn2)cc1 (configuration not stated)	-0.449
O=C(NCc1ccc(F)cc1)[C@H]1C[C@H]2C(=O)N[C@@H](Cc3ccccc3)C(=O)N2[C@H]1c1ccc(O)cc1	-0.0688
CC(C)(C)OC(=O)CC[C@@]12N=C(c3ccc(OCCCO)cc3)O[C@@H]1c1ccccc1N(CCS(=O)(=O)c1ccccc1)C2=O	1.84
CC1CC/C=C\[C@H]2OC34C=CCN(c5ccc(Cl)cc5)C(=O)[C@H]3N(CCO)C(=O)[C@]4(C)C2C(=O)O1 (some centres not stated)	1.13
NC(=O)[C@@H]1[C@H]2C(=O)O[C@H](c3ccccc3)[C@H](c3ccccc3)N2[C@H](c2ccc(O)cc2)[C@@]12C(=O)Nc1ccc(C#CC3(O)CCCCCC3)cc12	-0.231
COCCOC(=O)N1C(=O)[C@@]2(c3cc(C#CC4(O)CCCCCC4)ccc31)[C@H](c1ccc(O)cc1)N1[C@H](c3ccccc3)[C@H](c3ccccc3)OC(=O)[C@H]1[C@@H]2C(=O)Nc1nc2ccccc2s1	-0.502
CC(C)c1ccc(NN2C(C(O)c3cc(C(F)(F)F)cc(C(F)(F)F)c3)C=CC3C(=O)N(c4ccccc4)C(=O)C32)cc1 (configuration not stated)	0.122

Source: PubChem BioAssay
